Experiment: yeast display, Sf9 membrane polyspecificity reagent, FACS + sequencing; frameworks hold sequencing errors
Readout kind: polyreactivity (PSR sort gate)

QVQLVESGGGLVQAGGSLRLSCAASGRTFKHYAMGWYRPAPGKERELVAAITSGGSTYYADSVKGRFTISRDNAKNTVYLQMNSLKPEDTAVYYCNKESYFDTYRRYDSWGQGTQVTVSS	low polyreactivity
QVQLVESGGGLVQAGGSLRLSCAASGFTFVDYAMGWYRQAPGKERELVAAISSSGDSTYYADSVKGRFTISRYNAKNTVYLQMNSLKPEDNAVYYCAAEYDREEYSGYDYLGQGTQVTVSS	low polyreactivity

###

Experiment: yeast display, Sf9 membrane polyspecificity reagent, FACS + sequencing; frameworks hold sequencing errors
Readout kind: polyreactivity (PSR sort gate)

QVQLVESRGGLVQAGGSLRLSCAASGRIFGLYAMGWYRQAPGKERELVAAYADSVKGRFTISRDNAKNTVYLKMNCLKPEDTAVYYCAKGPLYAGYSIDLRDFNYWGQGTQVNVSS	low polyreactivity
QVQHVESGGGLVQAGGSLRLSCAASGSIINNYAMGWYRQPPGKERELVADSTYYADSVKGRFTISRDNAKNTVYLQMNSLKPEVTAVYYCAPDDGGGDPEFYWGQGSQVTVSS	high polyreactivity
QVQLVESGGGLVQAGGSLRLSCAASGRTFLVYVMGWYRQAPGKERELVASITYSGGSTYYADSVKGRFTISRDNAKNTVYLQMNSLKPEDTAVYYCAAAQGRQPYRARGLYYYWGQGTQVTVSS	high polyreactivity
QVQLVESGGGLVQAGGSLRLSCAASGIIFKLYAMGWYRQAPGKERELVAAITYRGGTTYYADSVKGRFTISRDNAKNTVYLQMNSLKPEDTAVYYCAADNTFRDDYFLYYLFNYNYWGQGTQVTVSS	low polyreactivity

Let's switch to this sequence now.
Which polyreactivity (PSR sort gate) is reported for this sequence? "QVQLVESGGGLVQAGGSLRLSCAASGGTRAHNAMGLYRQAPGKERELVAAISWRGGSTYYADSVKGRCTISRDNAKNTVYLQMNSLKPEDTAVYYCAKEQYVPDRPSFKNLNTYDYWGQGTQVTVSS"
low polyreactivity

###

Experiment: yeast display, Sf9 membrane polyspecificity reagent, FACS + sequencing; frameworks hold sequencing errors
Readout kind: polyreactivity (PSR sort gate)

QVQLVESGGGLVQAGGSLRLSCAATGIIIDSNAMGWYRQAPGKERELVAAITSGGSTKYADSVKGRFTISRDNAKNTVYLQMNSLKPEDTAVYYCAAGGSYYRDDYWGQGTQVTVSS	low polyreactivity
QVQLVESGGGLVQAGGSLRLSCAASGSIFWGNAMGWYRQAPGKEREMVAAITWSGGSTYYADSVKGRFTISRDNAKNTVYLQMNSLKPEDTAVYYCYAVYIGSRRRYEYDYWGQGTQVTVSS	high polyreactivity
QVQLEESGGRLVQAGGSLRLSCAASGYTFPLYAMGWYRQAPGKERELVADINIGGASTYYADSVKGRFTISRDNAKNTVYLQMNSLKPEDTAVYYCAAEDSWYWDAWFDYWGQGTQVTVSS	low polyreactivity
QVQLVESGGGLVQAGGSLRLSCAASGSIFSAYGMGWYRQAPGKERELVAAITRSGGSTYYADSVKGRFTISRDNAKNTVYLQMNSLKPEDTAVYYCAAKSIIRPYAPRRDDMDYWGQGTQVTVSS	low polyreactivity
QVQLVESVGGLDQAGGSLRLSCAASGRTFYRNAMGLYRQAPGKERELVSAITGSGGSTYYADSVKGRFTISRDNAKNTVYLQMNSLKPEDTAVYYCAAGTRIYNSLIGFDYWGQGTQVTVSS	high polyreactivity
QVQLVESGGGLVQAGGSLRLSCAASGSIFYRYAMGWYRPAPGKERELVAAITSGGTYYADSVKGRFTISRDNAKNTVYLQMNSLKPEDTAVYYCNRFSYPPSWYDYWGQGTQVTVSS	low polyreactivity

Recorded polyreactivity (PSR sort gate) of "QVQLVESRRGLVQAGASLRLSCAASGSTFYGYGMGWYRQAPGKERELVAAITGSGDTTYYADSVKGRFTISRDNAKNTVYLQMNSLKPEDTAVYYCNARWHAEYDYWGQGTQVTVSS" , please.
low polyreactivity

Next up: "QVQLVESGGGLVQAGGSLRLSCAASGSIFVSYAMGWYRQAPGKERELVAVISYSGVSTYYADSVKGRFTISRDNAKNTVYLQMNSLKPEDTAVYYCATRQYGTRHILKYNYWGQGTQVTVSS"
low polyreactivity

Field entry: "QVQLVESGGGLVQAGGSLRLSCAASGFIFSYYAMGWYRQAPGKERELVAAMSSSGSRTYYADSVKGRFTISRDNAKNTVYLQMNSLKPEDTAVYYCAARGWFRGEFDYWGQGTQVTVSS"
high polyreactivity

Likewise for "QVQLVESGGGLVQAGGSLRLSCAASGSTFGINAMGWYRQAPGKERELVAAIDASGGTTYFADSVKGRFTISRDNAKNTVYLQMNSLKPEDTAVYYCAADDNYYTFGYWGQGTQVTVSS" ?
high polyreactivity

And for "QVQLVESGGGLVQAGGSLRLSCAASGSIFVDYTMGWYRQAPGKERELVAAITYRGTRTYYADSVKGRFTISRDNAKNTVYLQMNSLKPEDTAVYYCNKLYRRYPVPREYDYWGQGTQVSVSS" ?
high polyreactivity

###

Experiment: yeast display, Sf9 membrane polyspecificity reagent, FACS + sequencing; frameworks hold sequencing errors
Readout kind: polyreactivity (PSR sort gate)

QVHLVESGGGLVQAGGSLRLSCAASGSTFPWYARGWYRKAPGKERELVAAISGSSSTTYYADSVKGRFTISRDNAMNTVYLQMNSLKPEDTAVYYCNAVTTSGSGYGYWGQGTQVTVSS	low polyreactivity
QVQLVESGGGLVQAGGSLRLSCAASGIIFKYYAMGWYRQAPGKERELVAAISRSSGSTYYADSVKGRFTISRDNAKKTVYLQMNSLKPEDTAVYYCAASGWPQKYDYWGQGTQVTVSS	high polyreactivity
QVQLVESGGGLVQEGGSLRLSCAASGRIFYNYPMGWYRQAPGKEREFVAAISGSGGSTYYADSVKGRFTISRDIAKNTVYLQMKSLKPEDTAVYYCSTSGPQYYSRNFDYWGQGTQVTVSS	low polyreactivity
QVQLVESGGGLVQAGGSLRLSCAASGLTFDGNAMGWYRQAPGKERELVAAITSSGGNTYYADSVKGRFTISRDNAKNTVYLQMNSLKPEDTAVYYCAAGGYRWSARTWSWVRYDYWGQGTQVTVSS	high polyreactivity

Let's switch to this sequence now.
Which polyreactivity (PSR sort gate) value belongs to "QVQLVESVAGLVQAGGSLRLSCAASGSIFRFYAMGWYRQAPGKERELVAGITWSGASTYYADSVKGRFTISRDNAKNTVYLQMNSLKPEDTAVYYCAKRYRLDGFYYWGQGTQVTVSS" ?
high polyreactivity

###

Experiment: yeast display, Sf9 membrane polyspecificity reagent, FACS + sequencing; frameworks hold sequencing errors
Readout kind: polyreactivity (PSR sort gate)

Some solved cases for reference:
QVQLVESGGGLVQPGGSLRLSCAASGFTFYTYAMGWYRQAPGKERELVATISSGGRTNYADSVKGRFTISRDNAKNTVYLQKNSLKPEDTAVYYCNIRLRGGAVRFDSWGQGTQVTVSS	low polyreactivity
RVQLVESGGGLVQAGGILRLSSAASGSTFPANAMGWYRQAPGKERELVAAITWRAASTYYADSVKGRFTISRDNAKNTVYLQMNSLKPEDTAVYYCARVTNSSAKNTDDYWGQGTQVTVSS	low polyreactivity
QLQHVESGRGLVQAGGSLRLSCADSGRTYGGYDMGWYRQATVKERELVAAISYSGGSTYYADSVKGRFTISRDNAKNTVYLEMNSLKPEDTAVFYCAADGYDAYYWGQGTQVTVSS	low polyreactivity
QFQLVESGGGLVQAGGSLRLSCAASGFTFAVYAMGWYRQAPWKERELVAAISRSGTRTYYADSVKGRFTISRDNAKNTVYLQMNSLKPVDTAVYYCAADKYRHGYDYWGQGTQVTVSS	low polyreactivity
QVQLVESGGGLVQAGGSLRLSCAASGIIFEYYAKGWYRQAPGKERELVAAITSDGSTNYADSVKGRFTISRDNEKNTVYLQMNRLKPEDTAVYYCNADLKANIQGVLSTGDDYWGQGTQVTVSS	low polyreactivity

Which value of polyreactivity (PSR sort gate) has been reported for "QVQLVESGGGLVQAGGSLRLSCAASGRTFYHNAMGWYRQAPGKERELVATINSGGSTYADSVKGRFTISRDNAKNTVYLQMISLKPEDTAVYYCASTFWSRSRFYYRYDYWGQGTQVTVSS" in the records?
high polyreactivity

Subsequent entry: "QVQLVESGGGLVQAGGSLRLSCAASGRTLRTYAMGWYRQAPGKERELVAAITSSGGRTYYADSVKGRFTISRDNAKNTVYLQMNSLKPEDTAVYYCAAARYYYGGDYWGQGTQVTVSS"
high polyreactivity

Follow-up entry: "QVQLVESGGGLVQAGGSLRLSCAASGINFVGYAMGWYRQAPGKERELVAAISTSSRTYYADSVKGRFTISRDNAKITVYLHMNSLKPDDTAVYYCNARGTRWYYRHDYWGQGTQVTVSS"
high polyreactivity

Another sequence: "QVQLVESGGGLVQAGGSLRLSCAASGIIFYKNAMGWYRQAPGKERELVAAISGSGGRTYYADSVKGRFTISRDNAKKTVYLQMNSLKPEDTAVYYCAARKPYRHGYESWGQGTQVTVSS"
high polyreactivity

Repeat with "QVQLVESGGGLVQAGGSLRLSCASSGSIFYDNAMGWYRQAPGKDRELVAAITVTGGSTYYADSVKGRFTISRDNAKNTVYLQMNSLKPEDTAVFYCAADPDYFDYWGQGTQVTVSS"
low polyreactivity

Same question, "QVQLVESGGGIVQAGGSLRLSCAASGRTFYSSAMGWYRQAPGKERALVAAITSDGGTYYADSVKGRFTISRDNAKNTVYLQMNSLKPEDTAVYYCNTRDLYGYPQVTGYDYWGQGSQVTVSS" this time
low polyreactivity

Values were extracted from the nanobody polyreactivity screen of Harvey et al. (2022).
